Just for reference, patent US7727980B2 is where these values come from.

Property: log10(IC50); scope: individual molecules
- TESTED_TARGET: human AR (Homo sapiens, UniProt P10275)
- Sequence (P10275 whole entry): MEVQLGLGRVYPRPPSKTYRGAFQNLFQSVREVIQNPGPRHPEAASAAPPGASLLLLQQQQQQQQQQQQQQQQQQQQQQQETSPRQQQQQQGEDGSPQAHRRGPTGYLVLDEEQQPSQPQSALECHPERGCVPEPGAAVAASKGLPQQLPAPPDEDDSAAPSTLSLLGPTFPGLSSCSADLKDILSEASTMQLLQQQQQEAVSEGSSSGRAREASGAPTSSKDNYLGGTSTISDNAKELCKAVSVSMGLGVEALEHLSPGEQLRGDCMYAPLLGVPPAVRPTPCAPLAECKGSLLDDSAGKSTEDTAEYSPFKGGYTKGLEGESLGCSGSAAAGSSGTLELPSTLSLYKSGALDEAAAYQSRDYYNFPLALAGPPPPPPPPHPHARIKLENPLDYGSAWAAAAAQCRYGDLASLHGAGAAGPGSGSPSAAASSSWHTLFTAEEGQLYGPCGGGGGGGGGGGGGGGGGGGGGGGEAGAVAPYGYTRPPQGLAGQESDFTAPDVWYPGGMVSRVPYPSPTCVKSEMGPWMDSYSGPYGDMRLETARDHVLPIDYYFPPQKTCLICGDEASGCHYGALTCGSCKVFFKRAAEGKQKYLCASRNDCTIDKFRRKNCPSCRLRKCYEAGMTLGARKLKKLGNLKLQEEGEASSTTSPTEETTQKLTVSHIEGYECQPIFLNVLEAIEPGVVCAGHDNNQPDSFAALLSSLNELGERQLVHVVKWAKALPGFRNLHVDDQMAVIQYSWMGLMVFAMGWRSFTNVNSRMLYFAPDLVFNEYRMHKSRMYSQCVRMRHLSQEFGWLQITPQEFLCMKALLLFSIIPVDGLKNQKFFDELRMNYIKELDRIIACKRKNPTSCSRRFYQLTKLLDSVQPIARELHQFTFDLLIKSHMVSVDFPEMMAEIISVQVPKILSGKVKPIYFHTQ
- METHOD_DESCRIPTION: Co-transfection assay, AR antagonist activity in presence of DHT, CV-1 cells
- Type: cell-based
- Set-up: expressed in transfected cells; host or cells: CV-1 cells (African green monkey kidney fibroblasts), transient transfection with pRShAR
- PROTOCOL_CONDITIONS: AR Antagonist CV-1 Cells Potency (nM), CV-1 cells; antagonist potency or IC50, DHT at its EC50 concentration
Please interpret these as log10 of IC50 where IC50 is in nM.

As a guide, the following entries are already answered.
CC1(C)CCc2c(ccc3[nH]c(=O)cc(C(F)(F)F)c23)N1 [Compound 104]; 0.26
Cc1[nH]c2c(ccc3[nH]c(=O)cc(C(F)(F)F)c32)c1CCO [Compound 177]; 2.90
C=CCc1c(C)[nH]c2c1ccc1[nH]c(=O)cc(C(F)(F)F)c12 [Compound 173]; 0.00
CC1=CC(C)(C)Oc2cc3oc(=O)cc(C(F)(F)F)c3cc21 [Compound 223]; 1.61

Q: Fill in reported log10(IC50) for this entry: O=c1cc(C(F)(F)F)c2c3c(ccc2[nH]1)N(CC(F)(F)F)C1CCCC31 (single isomer, unassigned; (+)) [Compound 178]
Result: 1.70
